Substrate: O=P(O)(O)OP(=O)(O)O
Experiment: purified protein
Assay type: biochemical, Thermococcus onnurineus
Settings: Mg2+, 90 °C, pH 9, pyrophosphate 0.05–1.0 mM, unit mM doubtful (M would fit the substrate range)
Here, each record is paired with measured Km data.

// Km lookup, key: Ton1914 (Thermococcus onnurineus NA1; E97Y/L42F) (protein, pET28a-Ton1914 expressed in E. coli BL21(DE3); heat-treated (80 °C) supernatant concentrated by ultrafiltration) MNPFHELEPGPEVPEVVYALIEIPKGSRNKYELDKKTGLLKFDRVLYSPFFYPVDYGIIPQTWYDDGDPFDIMVIMREPVYPLTIVEARPIGIMKMYDSGDKDWKVLAVPVEDPYFNDWKDIDDVPKAFLDEIAHFFQRYKELQGKVTTVEGWGTAEEAKREILRAIEMYKEKFGKKE
8.49 ± 0.30 × 10^−4 mM

# iterate: Ton1914 (Thermococcus onnurineus NA1; D101K) (protein, pET28a-Ton1914 expressed in E. coli BL21(DE3); heat-treated (80 °C) supernatant concentrated by ultrafiltration) MNPFHELEPGPEVPEVVYALIEIPKGSRNKYELDKKTGLLKLDRVLYSPFFYPVDYGIIPQTWYDDGDPFDIMVIMREPVYPLTIVEARPIGIMKMEDSGKKDWKVLAVPVEDPYFNDWKDIDDVPKAFLDEIAHFFQRYKELQGKVTTVEGWGTAEEAKREILRAIEMYKEKFGKKE
1.03 ± 0.04 × 10^−4 mM

Also need Ton1914 (Thermococcus onnurineus NA1; L42F) (protein, pET28a-Ton1914 expressed in E. coli BL21(DE3); heat-treated (80 °C) supernatant concentrated by ultrafiltration) MNPFHELEPGPEVPEVVYALIEIPKGSRNKYELDKKTGLLKFDRVLYSPFFYPVDYGIIPQTWYDDGDPFDIMVIMREPVYPLTIVEARPIGIMKMEDSGDKDWKVLAVPVEDPYFNDWKDIDDVPKAFLDEIAHFFQRYKELQGKVTTVEGWGTAEEAKREILRAIEMYKEKFGKKE , thanks.
3.18 ± 0.05 × 10^−4 mM

And for Ton1914 (Thermococcus onnurineus NA1) (protein, pET28a-Ton1914 expressed in E. coli BL21(DE3); heat-treated (80 °C) supernatant concentrated by ultrafiltration) MNPFHELEPGPEVPEVVYALIEIPKGSRNKYELDKKTGLLKLDRVLYSPFFYPVDYGIIPQTWYDDGDPFDIMVIMREPVYPLTIVEARPIGIMKMEDSGDKDWKVLAVPVEDPYFNDWKDIDDVPKAFLDEIAHFFQRYKELQGKVTTVEGWGTAEEAKREILRAIEMYKEKFGKKE ?
3.03 ± 0.18 × 10^−4 mM

// repeat for Ton1914 (Thermococcus onnurineus NA1; D101K/L42F) (protein, pET28a-Ton1914 expressed in E. coli BL21(DE3); heat-treated (80 °C) supernatant concentrated by ultrafiltration) MNPFHELEPGPEVPEVVYALIEIPKGSRNKYELDKKTGLLKFDRVLYSPFFYPVDYGIIPQTWYDDGDPFDIMVIMREPVYPLTIVEARPIGIMKMEDSGKKDWKVLAVPVEDPYFNDWKDIDDVPKAFLDEIAHFFQRYKELQGKVTTVEGWGTAEEAKREILRAIEMYKEKFGKKE and report
6.34 ± 0.82 × 10^−4 mM

Could you do the same for Ton1914 (Thermococcus onnurineus NA1; D101K/E97Y) (protein, pET28a-Ton1914 expressed in E. coli BL21(DE3); heat-treated (80 °C) supernatant concentrated by ultrafiltration) MNPFHELEPGPEVPEVVYALIEIPKGSRNKYELDKKTGLLKLDRVLYSPFFYPVDYGIIPQTWYDDGDPFDIMVIMREPVYPLTIVEARPIGIMKMYDSGKKDWKVLAVPVEDPYFNDWKDIDDVPKAFLDEIAHFFQRYKELQGKVTTVEGWGTAEEAKREILRAIEMYKEKFGKKE , please?
3.48 ± 0.27 × 10^−4 mM

// repeat for Ton1914 (Thermococcus onnurineus NA1; E97Y) (protein, pET28a-Ton1914 expressed in E. coli BL21(DE3); heat-treated (80 °C) supernatant concentrated by ultrafiltration) MNPFHELEPGPEVPEVVYALIEIPKGSRNKYELDKKTGLLKLDRVLYSPFFYPVDYGIIPQTWYDDGDPFDIMVIMREPVYPLTIVEARPIGIMKMYDSGDKDWKVLAVPVEDPYFNDWKDIDDVPKAFLDEIAHFFQRYKELQGKVTTVEGWGTAEEAKREILRAIEMYKEKFGKKE and report
5.94 ± 0.14 × 10^−4 mM

These measurements were taken from paper PMC12562645.
